I'd be grateful if you could share measured agonist EC50 (cAMP AlphaScreen) for these entries.
- Tested on: mouse melanocortin-1 receptor (mouse, UniProt Q01727 1-315)
- Sequence (Q01727 whole entry): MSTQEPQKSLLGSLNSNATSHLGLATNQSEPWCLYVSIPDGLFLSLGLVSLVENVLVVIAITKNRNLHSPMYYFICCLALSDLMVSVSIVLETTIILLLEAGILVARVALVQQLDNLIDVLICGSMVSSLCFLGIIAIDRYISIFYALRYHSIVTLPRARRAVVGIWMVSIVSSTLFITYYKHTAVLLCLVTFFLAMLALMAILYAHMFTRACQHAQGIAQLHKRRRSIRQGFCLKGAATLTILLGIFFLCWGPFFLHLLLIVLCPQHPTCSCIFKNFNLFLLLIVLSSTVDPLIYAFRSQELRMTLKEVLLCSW
- Test: cell-based or functional assay
Numbers only, in nM.

Each binder below has a reported value. Please supply its agonist EC50 (cAMP AlphaScreen).
1. PRFFXAFP (head-to-tail cyclic; DPhe at 4; Dap at 5; DPro at 8) [c[Pro-Arg-Phe-DPhe-Dap-Ala-Phe-DPro]]
2. PRFFXAFP (head-to-tail cyclic; DArg at 2; DPhe at 3 and 4; Dap at 5; DPro at 8) [c[Pro-DArg-DPhe-DPhe-Dap-Ala-Phe-DPro]]
3. PRFFXAFP (head-to-tail cyclic; DPhe at 3; Dap at 5; DPro at 8) [c[Pro-Arg-DPhe-Phe-Dap-Ala-Phe-DPro]]

1. 800
2. 2200
3. 230
